Test system: EKVX NSCLC
testProtocol: NCI-60 one-dose screen, 48 h (100 = growth as untreated, 0 = no growth, -100 = all killed)
settings: 10 µM unless noted
About 83,000 compounds went through this panel and 20% of them were active in at least one assay; those are over-represented in the sample as a whole.
Definition: the class of an entry is the range in lower range (below 50%), middle range (50% to below 90%), upper range (90% or more) that contains its growth.

molecule: O=C1/C(=C\c2ccccn2)c2ccccc2N1c1c(Cl)cccc1Cl
categoryLabel: lower range
//
molecule: Cc1cccc(Oc2ccc(Nc3ncnc4ccc(NC(=O)CN5CCN(C)CC5)cc34)cc2Cl)c1
categoryLabel: lower range
//
molecule: CC(=O)c1ccc(Nc2nccc(-c3ccc4ccccc4c3)n2)cc1
categoryLabel: upper range
//
molecule: C/C(Cc1ccc(Cl)cc1)=C(\c1ccc(OCCCN(C)C)cc1)c1ccc(OC(=O)Cc2ccccc2)cc1
categoryLabel: upper range

Which category fits this record: C/C(=N\O)c1ccc(NC(=O)CSc2nnc(-c3cc(-c4ccc(S(C)(=O)=O)cc4)nc4ccccc34)n2-c2ccccc2)cc1 middle range

Which category fits this record: CCCCCN(CCCCC)CC(O)c1cc(C)c2ccc3cc(C(C)C)ccc3c2c1 (configuration not stated) middle range

Which category fits this record: CCn1c(-c2cc3c([nH]c4ccccc43)c(-c3cccc(O)c3)n2)n[nH]c1=S middle range

Which category fits this record: COC(=O)c1nc(-c2ccccc2)oc1S(=O)(=O)NCC(c1ccc(Cl)cc1)N1CCOCC1 (configuration not stated) upper range

Which category fits this record: Cc1cccc[n+]1C1c2ccccc2-c2ccccc21 upper range

Which category fits this record: COc1cc(/C=N/Nc2ccc(Br)cc2)cc(OC)c1OC middle range

Which category fits this record: CN1CCN(CC(=O)Nc2ccc3ncnc(Nc4ccc(Oc5cccc(C(F)(F)F)c5)c(Cl)c4)c3c2)CC1 lower range

Which category fits this record: C#CC#CC#CC#CC#CC#CC#CC#CC[C@@H]1OC[C@@H](COC(=O)O[C@@H](C(=O)O[C@H]2C[C@@]3(O)[C@@H](OC(=O)c4ccccc4)[C@@H]4[C@]5(OC(C)=O)CO[C@@H]5C[C@H](O)[C@@]4(C)C(=O)[C@H](OC(C)=O)C(=C2C)C3(C)C)[C@@H](NC(=O)c2ccccc2)c2ccccc2)O1 lower range

Which category fits this record: Cc1ccc(C(=O)c2ccc(CC(=O)NN3C(=O)c4ccccc4C3=O)n2C)cc1 upper range

Which category fits this record: C=CCC(CCCC)(C(=O)OCC)C(=O)OCC upper range

Which category fits this record: Cc1ccc(-c2nc(N3CCNCC3)c3oc(-c4ccc(C)cc4)nc3n2)cc1 upper range

Which category fits this record: O=C(/C=C/C12c3ccccc3C(c3ccccc31)C1C(=O)NC(=O)C12)c1ccc(Br)cc1 (configuration not stated) middle range

Which category fits this record: COc1ccc(N2CCN(C(=O)c3sc4nc(C)c(Br)c(C)c4c3N)CC2)cc1 middle range

Which category fits this record: Cc1nn(-c2cc(NC3CCC(O)CC3)c3c(=O)[nH]c(CCC(F)(F)F)cc3c2)c2c1C(=O)CC(C)(C)C2 (configuration not stated) middle range

Which category fits this record: CCc1ccc(CCC(=O)Nc2ncc(Cc3ccccc3)s2)o1 lower range

###

Tested on: SNB-75 CNS
testProtocol: NCI-60 one-dose screen, 48 h (100 = growth as untreated, 0 = no growth, -100 = all killed)
settings: 10 µM unless noted
Procedure: Growth inhibition of the SNB-75 human tumor cell line is measured as a screen for anti-cancer activity. Cells are grown in 96 well plates and exposed to the test compound for 48 hours. Compounds are tested at a single concentration, which is 10^-5 M for most compounds. The reported endpoint is percent growth (GI% or GIPRCNT), where numbers from 0 - 100% represent growth inhibition, and numbers from -100% - 0 represent cell death. For example, a value of 40 represents 60% growth inhibition. […]
Compounds without any hit were thinned out: in the full panel of roughly 83,000, 20% have a hit. Calls of active or inactive are those of the source. The calls were made as follows: active = growth percent below 10; inactive = the rest.
# growth listing for each entry below

Reference set (4 entries):
molecule: CC(=O)c1sc2sc(C(C)=O)c(C)c2c1C
testedOn: SNB-75 CNS
growth: 90.6% (inactive)
//
molecule: C#CCn1cnc2cnc(Nc3cccc(NC(=O)C=C)c3)nc21
testedOn: SNB-75 CNS
growth: 86.2% [6.25 µM] (inactive)
//
molecule: COc1ccc(C2=CN3CC=CC3CC2=O)cc1 (stereo not given)
testedOn: SNB-75 CNS
growth: 90.9% (inactive)
//
molecule: CNC(=O)c1cc(Oc2cccc3nc(NC(=O)Nc4cc(C(F)(F)F)ccc4Cl)ccc23)ccn1
testedOn: SNB-75 CNS
growth: 68.9% (inactive)

API: the following record is the query input.
# query: growth of entry C=CCC(CCCC)(C(=O)OCC)C(=O)OCC 77.2% (inactive)

###

Test system: MDA-MB-435 melanoma
testProtocol: NCI-60 one-dose screen, 48 h
settings: 10 µM unless noted
This is part of a sample that, as a whole, favours compounds with a hit. Of some 83,000 tested, about 20% had one in any assay. The source made the active and inactive calls. How the source made its calls: active means growth percent below 10; inactive means the rest.
Pick one and only one: y for active, n for inactive

The examples below pair each entry with its known result.
molecule: Cc1ccc2c(-n3nc(C#N)c(C#N)c3N)cc(=O)[nH]c2c1
categoryLabel: n
//
molecule: O=C1/C=C/[C@@H](O)[C@@H]2C[C@@H](O)C[C@H]2/C=C/CCC[C@H](CCO)O1
categoryLabel: y
//
molecule: CCOc1ccc(-n2nc(C(=O)NCc3ccccc3OC)nc2-c2cc(OC)c(OC)c(OC)c2)cc1
categoryLabel: n
//
molecule: CCCC(CC)(C(=O)Nc1ccc2nc(C)cc(N)c2c1)C(=O)Nc1ccc2nc(C)cc(N)c2c1
categoryLabel: n
//
molecule: CC/C=C\CCC/C=C1/C(=O)C=C[C@@H]1C/C=C\CCCC(=O)OC
categoryLabel: y
//
molecule: Cc1ccc2c(-c3nnc(N)s3)cc(=O)oc2c1C
categoryLabel: n
//
molecule: Nc1nc(N)c(N=Nc2ccccc2)c(-c2ccccc2)n1
categoryLabel: n
//
molecule: Nc1nc(N)c2c(n1)NC(c1ccc(Cl)cc1)C1CCc3ccccc3C1=N2 (stereo not given)
categoryLabel: n
//
molecule: CC(=O)c1ccc(Nc2nccc(-c3ccc4ccccc4c3)n2)cc1
categoryLabel: n
//
molecule: COc1ccc(Nc2ncccc2/C=C/C(=O)c2cc(OC)c(OC)c(OC)c2)cc1
categoryLabel: y

Record request — test call for CCOc1c(OC)cc2c(c1O)C(=O)N[C@@H]1[C@@H](O)[C@@H](O)[C@H](O)C[C@@H]21 n

Record request — test call for [2H]C([2H])([2H])Oc1ccc(F)cc1/C=C/C(=O)/C=C(/C=C/c1cc(F)ccc1OC([2H])([2H])[2H])OB(F)F n

Record request — test call for O=C(C1CCCCC1)[C@@H]1[C@]2(C(=O)NC3CCCCC32)[C@@H]2CCCN2[C@@]12C(=O)NC1CCC(Cl)CC12 (stereo not given in full) y

Record request — test call for O=C(Nc1ccccc1N1CCCC1=O)c1oc2ccc(F)cc2c1-c1cnn(-c2ccccc2)c1 n

Record request — test call for CCOC(=O)c1c(C)c2c(n1Cc1ccccc1)CSCC2=O y

###

System: A498 renal
testProtocol: NCI-60 one-dose screen, 48 h
settings: 10 µM unless noted
This is part of a sample that, as a whole, favours compounds with a hit. Of some 83,000 tested, about 20% had one in any assay. Activity calls are given as the source filed them. How the source made its calls: active means growth percent below 10; inactive means the rest.
Pick one and only one: T (active), F (inactive)

The examples below pair each entry with its known result.
compound: OCCNCCNC(Cc1ccc(Cl)cc1)c1ccccc1 (stereo not given)
testedOn: A498 renal
categoryLabel: F
--
compound: Cn1c(=O)c2[nH]c(SCC(=O)Nc3ccc(C(=O)/C=C/c4ccccc4Cl)cc3)nc2n(C)c1=O
testedOn: A498 renal
categoryLabel: F
--
compound: O=C(/C=C/c1ccccc1)c1ccc(Nc2nc(Nc3ccc(F)cc3)nc(Nc3ccc(Cl)cc3)n2)cc1
testedOn: A498 renal
categoryLabel: F
--
compound: COc1ccc2c(c1)c(-c1nc(-c3c[nH]c4ncccc34)cs1)cn2CCO
testedOn: A498 renal
categoryLabel: T
--
compound: Fc1ccc2[nH]cc(-c3nc(-c4c[nH]c5ccncc45)cs3)c2c1
testedOn: A498 renal
categoryLabel: F

Record request — test call for CCOC(=O)C(Cc1ccc(OC)cc1)C(=O)OCC F

Record request — test call for C=C1C(=O)O[C@H]2[C@H]1CC/C(Cn1cc(CCC)nn1)=C\CC[C@@]1(C)O[C@@H]21 F

Record request — test call for C=C(C)[C@@H]1CC[C@]2(C(N)=O)CC[C@]3(C)[C@H](CC[C@@H]4[C@@]5(C)CC[C@H](OCCC#N)C(C)(C)[C@@H]5CC[C@]43C)[C@@H]12 F

Record request — test call for CCN1C(=O)N(CC)C2C1NN=c1s/c(=C\c3ccc[nH]3)c(=O)n12 (stereo not given) T

Record request — test call for CS(=O)(=O)c1ccc(NC(=O)c2ccccc2)nc1 F

Data provenance is PubChem BioAssay (NCI).
